ASSAYED TARGET: UniProtKB P30419
Sequence (P30419 whole entry): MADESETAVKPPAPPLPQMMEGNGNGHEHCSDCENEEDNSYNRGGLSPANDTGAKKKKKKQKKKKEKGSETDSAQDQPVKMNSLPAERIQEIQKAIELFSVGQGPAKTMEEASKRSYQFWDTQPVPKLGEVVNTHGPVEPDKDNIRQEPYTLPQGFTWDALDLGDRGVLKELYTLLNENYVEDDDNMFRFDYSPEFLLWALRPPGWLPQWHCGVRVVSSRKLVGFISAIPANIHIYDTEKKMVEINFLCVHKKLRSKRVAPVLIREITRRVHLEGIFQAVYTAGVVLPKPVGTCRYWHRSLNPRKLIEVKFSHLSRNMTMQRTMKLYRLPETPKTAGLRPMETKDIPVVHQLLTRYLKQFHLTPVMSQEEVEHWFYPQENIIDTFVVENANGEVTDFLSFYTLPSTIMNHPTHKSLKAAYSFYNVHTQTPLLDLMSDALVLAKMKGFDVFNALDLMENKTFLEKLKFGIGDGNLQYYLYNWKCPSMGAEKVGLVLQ
METHOD: NMT enzyme inhibition scintillation proximity assay, human NMT-1
Assay type: biochemical
ASSAY CONTEXT: HuNMT-1
Would you mind telling me the reported IC50 of each entry?

Lookup: Recorded IC50 for `Cc1c(N[S+](=O)([O-])c2ccc(Br)cc2)cnn1C` with UniProtKB P30419, please?
Found: > 100 µM

Lookup: Please provide the recorded IC50 for `Cn1cc(N[S+](=O)([O-])c2c(Cl)cc(Br)cc2Cl)cn1` , tested on UniProtKB P30419.
Found: > 100 µM

Lookup: Item: `Cc1nn(C)c(C)c1N(C)[S+](=O)([O-])c1ccc(CCCn2ccnc2)cc1` Test system: UniProtKB P30419 Read-out: IC50 Value: ?
Found: > 1 µM

---

ASSAYED TARGET: T. brucei N-myristoyl transferase (Trypanosoma brucei brucei (strain 927/4 GUTat10.1))
Sequence (Q388H8 1-446): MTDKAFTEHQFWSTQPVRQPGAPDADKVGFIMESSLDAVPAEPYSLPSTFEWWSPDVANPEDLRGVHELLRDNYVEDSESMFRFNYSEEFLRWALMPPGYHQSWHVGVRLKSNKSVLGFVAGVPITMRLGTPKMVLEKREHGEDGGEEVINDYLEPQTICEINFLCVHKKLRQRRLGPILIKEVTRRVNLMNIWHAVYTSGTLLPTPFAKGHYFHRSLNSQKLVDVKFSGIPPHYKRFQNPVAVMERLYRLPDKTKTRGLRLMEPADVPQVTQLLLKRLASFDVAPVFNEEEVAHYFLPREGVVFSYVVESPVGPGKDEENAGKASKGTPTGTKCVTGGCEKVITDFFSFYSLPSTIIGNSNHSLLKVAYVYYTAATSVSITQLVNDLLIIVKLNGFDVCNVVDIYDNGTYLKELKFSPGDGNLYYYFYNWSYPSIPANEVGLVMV
METHOD: biochemical
Assay type: biochemical
ASSAY CONTEXT: T. brucei NMT; value without parentheses; read-out: IC50 (μM) NMT Enzyme (T. brucei NMT)
MEASURED QUANTITY: IC50 (µM)
Report as a plain number; the unit µM is understood.

Lookup: Kindly state the measured IC50 obtained for CCCc1nn(C)c(C)c1N[S+](=O)([O-])c1ccc(Br)cc1 [DDD100871] with T. brucei N-myristoyl transferase (Trypanosoma brucei brucei (strain 927/4 GUTat10.1)).
Found: 7.95

Lookup: Hi! What's the reported IC50 for Cc1c(N[S+](=O)([O-])c2ccc(CCCC3CCN(C)CC3)cc2)c(Cc2ccccc2)nn1C [DDD100881] on T. brucei N-myristoyl transferase (Trypanosoma brucei brucei (strain 927/4 GUTat10.1))?
Found: 0.02

Lookup: Could you share what IC50 was measured for CCNCc1cccc(-c2ccc([S+](=O)([O-])Nc3c(CC(C)C)nn(C)c3C)cc2)c1 [DDD100095] , tested on T. brucei N-myristoyl transferase (Trypanosoma brucei brucei (strain 927/4 GUTat10.1))?
Found: 0.005

Lookup: Hello, I am looking for reported IC50 with T. brucei N-myristoyl transferase (Trypanosoma brucei brucei (strain 927/4 GUTat10.1)) for Cc1c(N[S+](=O)([O-])c2ccc(-c3ccc(F)c(CN4CCCC4)c3)cc2)c(CC(C)C)nn1C [DDD100806] . Could you help?
Found: 0.004

Lookup: // lookup IC50 | system=T. brucei N-myristoyl transferase (Trypanosoma brucei brucei (strain 927/4 GUTat10.1)) | key= Cc1c(N[S+](=O)([O-])c2ccc(-c3ccc(CN(C)C)cc3)cc2)c(CC(C)C)nn1C [DDD100865]
Found: 0.097

Lookup: State its IC50 on T. brucei N-myristoyl transferase (Trypanosoma brucei brucei (strain 927/4 GUTat10.1)): Cc1nn(C)c(C)c1N[S+](=O)([O-])c1ccc(-c2cccc(-c3nccn3C)c2)cc1 [DDD100874]
Found: 0.74

Lookup: Observed IC50 on T. brucei N-myristoyl transferase (Trypanosoma brucei brucei (strain 927/4 GUTat10.1)) for Cc1c(N[S+](=O)([O-])c2ccc(-c3cccc(C(C)(C)N(C)C)c3)cc2)c(CC(C)C)nn1C [DDD100863] , please.
Found: 0.006

Lookup: Please tell me: IC50 of Cc1nn(C)c(C)c1N(CC(F)F)[S+](=O)([O-])c1c(Cl)cc(CCCN2CCN(C)CC2)cc1Cl [DDD100163] , system T. brucei N-myristoyl transferase (Trypanosoma brucei brucei (strain 927/4 GUTat10.1))?
Found: 0.014

Lookup: Which measured IC50 belongs to COCCNCc1cccc(-c2ccc([S+](=O)([O-])Nc3c(CC(C)C)nn(C)c3C)cc2)c1 [DDD100797] , tested on T. brucei N-myristoyl transferase (Trypanosoma brucei brucei (strain 927/4 GUTat10.1))?
Found: 0.023

Recorded values, source patent US9156811B2.
